Give growth for every item shown.
Tested on: MALME-3M melanoma
Assay comment: NCI-60 one-dose screen, 48 h (100 = growth as untreated, 0 = no growth, -100 = all killed)
Reported conditions: 10 µM unless noted
Compounds without any hit were thinned out: in the full panel of roughly 83,000, 20% have a hit.
Reply numerically in %, unit not repeated.

Prompt: growth for Cc1ccc2[nH]c3nc4cccnc4c(C)c3c2c1 ?
Completion: 127

Prompt: growth for CCc1ccc(C2=C/C(=C/c3ccc(Cl)cc3)C(=O)N2CCc2ccc(S(N)(=O)=O)cc2)cc1 ?
Completion: 41.5

Prompt: growth for C=C1C(=O)O[C@H]2[C@H]1CC/C(COC(=O)c1cc(OC)c(OC)c(OC)c1)=C\CC[C@@]1(C)O[C@@H]21 ?
Completion: -57.7

Prompt: growth for COc1cc(-c2nc(N)n(CC(=O)Nc3ccc(/C(C)=N\O)cc3)n2)cc(OC)c1OC ?
Completion: 96.7

Prompt: growth for Nc1ncnc2c1c(-c1ccc(Oc3ccccc3)cc1)nn2C[C@@H]1SSC[C@H]1O ?
Completion: 7.28

Prompt: growth for CSc1ccc(C(=O)C[n+]2cccc(C)c2)cc1 ?
Completion: 96.6

Prompt: growth for O=C(Nc1ccc(-n2ccc3c(NC(=O)c4ccccc4)ncnc32)cc1)Nc1cccc(Cl)c1Cl ?
Completion: 2.21

Prompt: growth for COc1cc(NC(C)CCCN2C(=O)c3ccccc3C2=O)c2nccc(C)c2c1OC (centres undefined) ?
Completion: 81.2

Prompt: growth for O=S(=O)(CCN1CCOCC1)Nc1cc(-c2ccc3ncnc(Nc4ccc(F)c(Cl)c4)c3c2)cnc1Cl ?
Completion: -23.1

###

System: NCI/ADR-RES ovarian
Assay comment: NCI-60 one-dose screen, 48 h
Reported conditions: 10 µM unless noted
Compounds without any hit were thinned out: in the full panel of roughly 83,000, 20% have a hit. Activity calls are given as the source filed them. How the source made its calls: active means growth percent below 10; inactive means the rest.
Return exactly one item of active, inactive

Prompt: Which outcome did this test record for the molecule O=C(Nc1ccc(-n2ccc3c(NC(=O)c4ccccc4)ncnc32)cc1)Nc1ccc(Cl)c(Cl)c1 ?
Completion: inactive

Prompt: Which outcome did this test record for the molecule Nc1nccc2c1ccn2-c1cccc(NC(=O)c2ccc(N3CCOCC3)c(C(F)(F)F)c2)c1 ?
Completion: active

Prompt: Which outcome did this test record for the molecule Cc1ccc2oc(=O)cc(C3C(C#N)=C(N)Oc4c3ccc3ccccc43)c2c1 (centres undefined) ?
Completion: inactive

Prompt: Which outcome did this test record for the molecule NCC(=O)NS(=O)(=O)OC[C@H]1O[C@@H](n2cnc3c(N)ncnc32)[C@H](O)[C@@H]1O ?
Completion: active

Prompt: Which outcome did this test record for the molecule CC1=C2C(=C[C@@](C)(CO)[C@@H]2OC(=O)N(C)CCN(C)C(=O)OC(C)(C)C)C(=O)[C@](C)(O)C12CC2 ?
Completion: inactive

Prompt: Which outcome did this test record for the molecule O=C(Nc1ccc(-n2ccc3c(NC(=O)c4ccccc4)ncnc32)cc1)Nc1cccc(Cl)c1Cl ?
Completion: active

Prompt: Which outcome did this test record for the molecule CN(C)CCS(=O)(=O)Nc1cc(-c2ccc3ncnc(Nc4ccc(F)c(Cl)c4)c3c2)cnc1Cl ?
Completion: inactive

Prompt: Which outcome did this test record for the molecule COc1ccc(-c2nnc(SCC(=O)N3CCN(c4cc5c(cc4F)c(=O)c(C(=O)O)cn5C4CC4)CC3)o2)cc1OC ?
Completion: inactive

Prompt: Which outcome did this test record for the molecule Nc1nccc(=S)[nH]1 ?
Completion: inactive

###

Tested on: KM12 colon
Assay comment: NCI-60 one-dose screen, 48 h
Reported conditions: 10 µM unless noted
The panel holds about 83,000 compounds, 20% with a hit somewhere; the sample as a whole holds those more often. Calls of active or inactive are those of the source. How the source made its calls: active means growth percent below 10; inactive means the rest.
Return exactly one item of active, inactive

Prompt: Which outcome did this test record for the compound CCCCn1c(-c2cccc(OC)c2)nc2cc(OC)c(OC)cc2c1=O ?
Completion: inactive

Prompt: Which outcome did this test record for the compound C[C@H]1C=C(C[C@@H](O)CCCCCCCCCC[C@@H](O)[C@H]2CCC(=O)O2)C(=O)O1 ?
Completion: inactive

Prompt: Which outcome did this test record for the compound C[C@H]1C=C(C[C@@H](O)CC#CC#CCCCCC[C@@H](O)[C@H]2CCC(=O)O2)C(=O)O1 ?
Completion: inactive

Prompt: Which outcome did this test record for the compound O=C(Nc1ccc(-n2ccc3c(NC(=O)c4ccccc4)ncnc32)cc1)Nc1ccc(Cl)c(Cl)c1 ?
Completion: active

Prompt: Which outcome did this test record for the compound COc1ccccc1NC(=O)COc1ccc(/C=C2/Oc3cc4occc4c(OC)c3C2=O)cc1OC ?
Completion: inactive

Prompt: Which outcome did this test record for the compound COc1ccc(Cl)cc1NC(=O)c1cc2c(n1C)-c1nc(NC(=O)C(C)C)sc1CC2 ?
Completion: inactive

Prompt: Which outcome did this test record for the compound COc1ccc(NC(=O)Nc2ccc(-c3ccc(OC)c(OC)c3)nc2C)cc1 ?
Completion: inactive

Prompt: Which outcome did this test record for the compound NS(=O)(=O)c1ccc(-n2nc(-c3ccc(Cl)cc3)ccc2=O)cc1 ?
Completion: inactive

Prompt: Which outcome did this test record for the compound CN1CCN(CC(O)COc2c(Br)c(Br)c(Br)c3c2OC(C)(C)C3)CC1 (centres undefined) ?
Completion: inactive

###

Test system: OVCAR-4 ovarian
Assay comment: NCI-60 one-dose screen, 48 h (100 = growth as untreated, 0 = no growth, -100 = all killed)
Reported conditions: 10 µM unless noted
This is part of a sample that, as a whole, favours compounds with a hit. Of some 83,000 tested, about 20% had one in any assay. Active and inactive are the calls of the source. How the source made its calls: active means growth percent below 10; inactive means the rest.
Readout label: growth

Prompt: growth for Nc1nccc2c1ccn2-c1ccc(NC(=O)Nc2cccc(C(F)(F)F)c2)cc1 ?
Completion: 108% (inactive)

Prompt: growth for Nn1c(SCC(=O)Nc2cc(Cl)c(Cl)cc2Cl)nnc1-c1cc(F)c(Cl)cc1Cl ?
Completion: 120% (inactive)

Prompt: growth for COc1ccc(-c2nn(-c3ccc(NC(=O)c4cc(Cl)cc(Cl)c4)cc3)cc2-c2ccncc2)cc1Cl ?
Completion: 89.6% (inactive)

Prompt: growth for O=C1C(Cl)=C(Nc2ccccc2)C(=O)C(Cl)=C1Nc1ccccc1 ?
Completion: 115% (inactive)

Prompt: growth for O=C(O)c1ccccc1C(=O)c1ccc(I)cc1 ?
Completion: 109% (inactive)

Prompt: growth for O=S1(=O)N(CCNc2nccc(-c3c(-c4cccc(O)c4)nc4sccn34)n2)CCN1Cc1ccccc1 ?
Completion: 110% (inactive)

Prompt: growth for Nc1ncnc2c1ncn2C1OC(COC(c2ccccc2)(c2ccccc2)c2ccccc2)C(O)C1O (stereo not given) ?
Completion: 95.2% (inactive)

Prompt: growth for Cc1nc(-c2ccc(Cl)cc2)ccc1NC(=O)Nc1cccc(C(F)(F)F)c1 ?
Completion: 108% (inactive)

Prompt: growth for Cc1cc(NC(=O)c2cccc(C(F)(F)F)c2)ccc1-n1ccc2c(NC(=O)c3ccccc3)nccc21 ?
Completion: 96.7% (inactive)

Prompt: growth for Cc1c(F)cccc1NC(=O)c1sc2nc3c(cc2c1N)CCCCC3 ?
Completion: 75.6% (inactive)

###

Test system: NCI-H322M lung
Assay comment: NCI-60 one-dose screen, 48 h (100 = growth as untreated, 0 = no growth, -100 = all killed)
Reported conditions: 10 µM unless noted
Method: Growth inhibition of the NCI-H322M human Non-Small Cell Lung tumor cell line is measured as a screen for anti-cancer activity. Cells are grown in 96 well plates and exposed to the test compound for 48 hours. Compounds are tested at a single concentration, which is 10^-5 M for most compounds. The reported endpoint is percent growth (GI% or GIPRCNT), where numbers from 0 - 100% represent growth inhibition, and numbers from -100% - 0 represent cell death. […]
About 83,000 compounds went through this panel and 20% of them were active in at least one assay; those are over-represented in the sample as a whole.
Readout label: growth (%)
Reply numerically in %, unit not repeated.

Prompt: What reported growth corresponds to COc1ccc(C2=NN(C(=O)COc3ccc(Cl)cc3)C(O)(c3cc(F)c(Cl)cc3Cl)C2)cc1OC (stereo not given) on NCI-H322M lung?
Completion: 88.8

Prompt: What reported growth corresponds to COc1ccccc1S(=O)(=O)Nc1ccc2c3c(cc(-c4ccoc4)nc13)C(=O)N2C on NCI-H322M lung?
Completion: 76.2

Prompt: What reported growth corresponds to CC(C)C(=O)Nc1nc2c(s1)CCCc1ccn(S(=O)(=O)c3ccccc3)c1-2 on NCI-H322M lung?
Completion: 90

Prompt: What reported growth corresponds to Cc1cn(C2CC(N=[N+]=[N-])C(COP(=O)(O)OP(=O)(O)OP(=O)(O)O)O2)c(=O)[nH]c1=O (stereo not given) on NCI-H322M lung?
Completion: 102

Prompt: What reported growth corresponds to COc1cc(C(=O)N2CCN(C(=O)c3cc(OC)c(OCc4ccccc4)cc3N)CC2)c(N)cc1OCc1ccccc1 on NCI-H322M lung?
Completion: 99.3

Hey, just so you know, these numbers are from PubChem BioAssay (NCI).
